ASSAY EXPLANATION: In vivo PK profiling
CONDITION SET: male, C57BL/6, mouse, plasma; mice, SC (5 mg/kg)
TEST READOUT: Cmax at 8 h (nM)

>>> observed("CC[C@@H](C(=O)OCCOCCOCCOCC(=O)N[C@H](C(=O)N1C[C@H](O)C[C@H]1C(=O)NCc1ccc(-c2scnc2C)cc1)C(C)(C)C)[C@@H]1N=C(c2ccc(Cl)cc2)c2c(sc(C)c2C)-n2c(C)nnc21 [AGB1 (46)]")
700

###

ASSAY EXPLANATION: In vivo PK profiling
CONDITION SET: male, C57BL/6, mouse, plasma; mice, SC (5 mg/kg)
TEST READOUT: Tmax at 8 h (min)

>>> observed("CC[C@@H](C(=O)OCCOCCOCCOCC(=O)N[C@H](C(=O)N1C[C@H](O)C[C@H]1C(=O)NCc1ccc(-c2scnc2C)cc1)C(C)(C)C)[C@@H]1N=C(c2ccc(Cl)cc2)c2c(sc(C)c2C)-n2c(C)nnc21 [AGB1 (46)]")
30
